tested on: U2OS; experiment: Multiplex assay against U2OS; format: toxicity, cell-based; conditions: human, 12 h, 10 µM, compound concentration 10 uM, replicate 2
Note to self: use fulfilled only for Population Hoechst High Intensity Objects (%) readings below 1%; a reading exactly at 1% still gets not fulfilled.

# COMPOUND, MEASURED ON, CAT
rows = [
    ("Cc1cc(=O)n(C)c2cc(N3C(=O)CC[C@H](NS(=O)(=O)CC(C)C)[C@H]3c3ccc(Cl)cc3)ccc12", "U2OS", "not fulfilled"),
    ("COC(c1ccccc1)(c1ccccc1)[C@H](Oc1nc(C)cc(C)n1)C(=O)O [AMBRISENTAN]", "U2OS", "fulfilled"),
]

Q: hey, is Population Hoechst High Intensity Objects (%) for COc1cc(Nc2ncc3c(n2)-c2ccc(Cl)cc2C(c2c(F)cccc2OC)=NC3)ccc1C(=O)O [ALISERTIB] lower than 1% or not?
Result: not fulfilled

Q: Report whether reported Population Hoechst High Intensity Objects (%) is lower than 1% (strictly) for COc1ccc2[nH]c(I)c(CCNC(C)=O)c2c1 [IODOMELATONIN]
Result: fulfilled

Q: Consider the compound Cc1cc(O)c(-c2ccc([C@@H](C)CN(C)C)cc2)c2c1[nH]c(=O)c1sccc12 . Is its Population Hoechst High Intensity Objects (%) strictly less than 1%?
Result: not fulfilled

Q: Does CN(C)C/C=C/C(=O)Nc1ccc(C(=O)N2CCCC(Nc3ncc(Cl)c(-c4c[nH]c5ccccc45)n3)C2)cc1 (stereo unspecified) have Population Hoechst High Intensity Objects (%) strictly under 1%?
Result: not fulfilled

Q: Population Hoechst High Intensity Objects (%) strictly < 1% for this compound? COc1c(Nc2ccc(S(C)(=O)=O)nc2C)ncnc1OC1CCN(C(=O)OC(C)C)CC1 [ADP-597]
Result: not fulfilled

Q: Quick check: does COCCn1c(C)c(C)s/c1=N\C(=O)C1C(C)(C)C1(C)C have Population Hoechst High Intensity Objects (%) under 1%?
Result: fulfilled

Entry source: ChEMBL document CHEMBL5058577
